Tested on: A549
Assay Details: Euclidean distance of Cell Painting phenotypic profile (signed KS, 77 features) to DMSO centroid (dimensionless distance); 5 or 10 uM (library dependent); higher = stronger phenotypic change vs DMSO (phenoactivity)
Condition Summary: 48 h
Where a name gives a salt, the structure may show the parent alone.
Each entry below carries its recorded Euclidean distance.
Keep the answer to the number alone.

Look over these answered cases.
Compound: CCc1c2c(nc3ccc(OC(=O)N4CCC(N5CCCCC5)CC4)cc13)-c1cc3c(c(=O)n1C2)COC(=O)[C@]3(O)CC [Irinotecan HCl Trihydrate]
Experimental System: A549
Euclidean distance: 3.5

Compound: N#Cc1ccc2[nH]cc(CCCCN3CCN(c4ccc5oc(C(N)=O)cc5c4)CC3)c2c1 [Vilazodone HCl]
Experimental System: A549
Euclidean distance: 2.23

Compound: Cc1cc(Nc2ccc(NC(=O)c3ccc(Nc4ccnc5ccccc45)cc3)cc2)nc(N)n1
Experimental System: A549
Euclidean distance: 3.02

Compound: COc1ccc(C[C@H](N)C(=O)N[C@H]2[C@@H](O)[C@H](n3cnc4c(N(C)C)ncnc43)O[C@@H]2CO)cc1 [Puromycin 2HCl]
Experimental System: A549
Euclidean distance: 3.8

Compound: CC1(C)[C@@H](O[C@H]2O[C@H](C(=O)O)[C@@H](O)[C@H](O)[C@H]2O[C@@H]2O[C@H](C(=O)O)[C@@H](O)[C@H](O)[C@H]2O)CC[C@]2(C)[C@H]3C(=O)C=C4[C@@H]5C[C@@](C)(C(=O)O)CC[C@]5(C)CC[C@@]4(C)[C@]3(C)CC[C@@H]12 [Glycyrrhizin (Glycyrrhizic Acid)]
Experimental System: A549
Euclidean distance: 0.67

Here is another compound to look at.
Value of Euclidean distance reported for the compound Clc1ccc(Cn2c(CN3CCCC3)nc3ccccc32)cc1 [Clemizole] is 0.265

* * *

Tested on: OVCAR4
Assay Details: Euclidean distance of Cell Painting phenotypic profile (signed KS, 77 features) to DMSO centroid (dimensionless distance); 5 or 10 uM (library dependent); higher = stronger phenotypic change vs DMSO (phenoactivity)
Condition Summary: 48 h
Where a name gives a salt, the structure may show the parent alone.
Param threshold (1) applies to Euclidean distance; output Condition met when value >= threshold, Condition not met when value < threshold.

Here's what some known entries look like.
Compound: CC[C@@H](CO)NCCN[C@@H](CC)CO [Ethambutol HCl]
Class Assignment: Condition not met
--
Compound: CCN(CC)Cc1cc(Nc2ccnc3cc(Cl)ccc23)ccc1O [Amodiaquine dihydrochloride dihydrate]
Class Assignment: Condition met
--
Compound: Cc1c(C(=O)NN2CCCCC2)nn(-c2ccc(Cl)cc2Cl)c1-c1ccc(Cl)cc1
Class Assignment: Condition met
--
Compound: Cc1c(C)c2c(c(C)c1O)CC[C@@](C)(CCC[C@H](C)CCC[C@H](C)CCCC(C)C)O2
Class Assignment: Condition met
--
Compound: OCc1ccc(Cl)cc1Cl
Class Assignment: Condition met
--
Compound: C[C@H](NC(=O)Cc1cc(F)cc(F)c1)C(=O)N[C@@H]1C(=O)N(C)c2ccccc2-c2ccccc21
Class Assignment: Condition not met
--
Compound: CN(CCOc1ccc(CC2SC(=O)NC2=O)cc1)c1ccccn1 (configuration not stated) [Rosiglitazone maleate]
Class Assignment: Condition met
--
Compound: Cc1cccc(C)c1NC(=O)C1CCCCN1C (configuration not stated) [Mepivacaine HCl]
Class Assignment: Condition not met
--
Compound: CCN(CCCCOC(=O)c1ccc(OC)c(OC)c1)C(C)Cc1ccc(OC)cc1 (configuration not stated) [Mebeverine Hydrochloride]
Class Assignment: Condition met
--
Compound: Cc1c(Nc2ncccc2C(=O)O)cccc1C(F)(F)F
Class Assignment: Condition met

Would you say c1ccc(C2CN3CCSC3=N2)cc1 (single isomer, unassigned; (-)) [(-)-Tetramisole] shows Euclidean distance at minimum 1?
Condition met

Would you say `Cc1cc(-c2ncc(CC(=O)Nc3ccc(-c4cnccn4)cn3)cc2C)ccn1` shows Euclidean distance at minimum 1?
Condition not met

Would you say `COc1ccc(-c2ccc3cc(C(=O)O)ccc3c2)cc1C12CC3CC(CC(C3)C1)C2` shows Euclidean distance at minimum 1?
Condition met

Would you say CCOC(=O)[C@H](CCc1ccccc1)N[C@@H](C)C(=O)N1C(=O)N(C)C[C@H]1C(=O)O [Imidapril HCl] shows Euclidean distance at minimum 1?
Condition met

Would you say `C#C[C@]1(O)CC[C@H]2[C@@H]3CCC4=CCCC[C@@H]4[C@H]3CC[C@@]21C` shows Euclidean distance at minimum 1?
Condition met

Would you say `OC[C@@H](O)[C@@H](O[C@@H]1O[C@H](CO)[C@H](O)[C@H](O)[C@H]1O)[C@H](O)[C@@H](O)CO` shows Euclidean distance at minimum 1?
Condition met
